# Species: Rattus norvegicus
# test: Pharmacological potency relative to indomethacin for prodrug candidate by adjuvant-induced arthritis assay
# Assay type: functional
Overview of recorded Potency for various compounds
readout.kind: Potency

compound: Nc1c(CC(=O)[O-])cccc1C(=O)c1ccc(Cl)cc1.[Na+]
readout.kind: Potency
measured: 2.2
//
compound: CCOC(=O)Cc1cccc(C(=O)c2ccccc2)c1N
readout.kind: Potency
measured: 0.3
//
compound: Nc1c(C(=O)CCC(=O)O)cccc1C(=O)c1ccccc1
readout.kind: Potency
measured: 0.4
//
compound: Nc1c(CCO)cccc1C(=O)c1ccc(Cl)cc1
readout.kind: Potency
measured: 0.8
//
compound: Nc1c(CCO)cccc1C(O)c1ccccc1 (stereo unspecified)
readout.kind: Potency
measured: 0.005
//
compound: Nc1c(CCO)cccc1C(O)c1ccc(Cl)cc1 (stereo unspecified)
readout.kind: Potency
measured: 0.05

All values here come from ChEMBL document CHEMBL1124887.
